Listed compounds paired with reported Emax
# measuredTarget: human ERα (Homo sapiens, UniProt P03372)
# Sequence (P03372 whole entry): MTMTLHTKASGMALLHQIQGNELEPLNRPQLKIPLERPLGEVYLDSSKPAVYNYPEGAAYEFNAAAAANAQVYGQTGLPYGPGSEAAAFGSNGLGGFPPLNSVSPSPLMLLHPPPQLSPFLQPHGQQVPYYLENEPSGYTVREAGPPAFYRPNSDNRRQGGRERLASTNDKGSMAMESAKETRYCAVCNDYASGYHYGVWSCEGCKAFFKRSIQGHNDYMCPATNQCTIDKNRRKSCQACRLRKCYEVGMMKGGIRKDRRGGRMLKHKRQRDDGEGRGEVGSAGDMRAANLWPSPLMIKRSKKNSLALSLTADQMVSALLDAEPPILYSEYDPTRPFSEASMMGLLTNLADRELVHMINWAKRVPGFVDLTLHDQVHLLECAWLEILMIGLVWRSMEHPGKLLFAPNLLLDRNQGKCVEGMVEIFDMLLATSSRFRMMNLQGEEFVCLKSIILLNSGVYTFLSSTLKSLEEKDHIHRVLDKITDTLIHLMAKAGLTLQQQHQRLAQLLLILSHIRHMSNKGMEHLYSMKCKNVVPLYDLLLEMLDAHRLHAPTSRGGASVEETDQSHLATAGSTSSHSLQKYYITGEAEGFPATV
# assayNotes: NF-κB luciferase reporter (ER/NF-KB-luc) in Ad5-wt-hERα infected HAECT-1 cells
# recordedConditions: HAECT1, read-out: ER/NF-KB-luc % E2, efficacy relative to the maximal inhibition observed with E2
The figure you give is taken to be in %; do not add the unit.

CCCn1nc(-c2ccc(O)cc2)c2cccc(-c3ccccc3)c21	78
Oc1ccc(-c2nn(-c3ccccc3Cl)c3cc(O)ccc23)c(O)c1	79
CCCn1nc(-c2ccc(O)cc2)c2cccc(Cl)c21	79

Challenge: What does the record list as Emax for `Oc1ccc(-c2nn(C3CCCC3)c3c(-c4ccc(C(F)(F)F)cc4)cccc23)cc1` ?
Response given: 79

Challenge: What does the record list as Emax for `CC(C)n1nc(-c2ccc(O)cc2)c2cccc(-c3ccc(CO)cc3)c21` ?
Response given: 82

Challenge: What does the record list as Emax for `CCCn1nc(-c2ccc(OC(=O)CC(C)(C)C)cc2)c2cccc(Cl)c21` ?
Response given: 78

Challenge: What does the record list as Emax for `CCCn1nc(-c2ccc(O)cc2)c2cccc(-c3ccc(O)cc3)c21` ?
Response given: 79
